tgt: DAT S422A (Homo sapiens, UniProt Q01959, S422A)
assay.protocol: [3H]Dopamine transport assay, DAT S422A mutant
pIC50: −log10 of the molar value.

molecule.smiles | pIC50
N[C@@H]1CC[C@@H](c2ccc(Cl)c(Cl)c2)c2ccccc21 | 5.33
